Species on record: Rattus norvegicus
measurement.protocol: Open TG-GATES - Regimen: Single
Type: toxicity, organism-based, Sprague-Dawley
Set-up: regimen Single, gender Male, age 6 weeks
test.parameters: in vivo, po, 0 mg/kg, 9 h, tissue Plasma, route gavage, dose level Control
measurement.kind: Ca (mg/dL)
Use mg/dL as the unit, but write only the number.

Recorded results for 4 compounds are shown here.
compound | uom | reading
CC(=O)N1CCN(c2ccc(OCC3COC(Cn4ccnc4)(c4ccc(Cl)cc4Cl)O3)cc2)CC1 (stereo not given) | mg/dL | 10.4
CC(=O)Nc1ccc2c(c1)Cc1ccccc1-2 | mg/dL | 10.6
CC[C@@H](CO)NCCN[C@@H](CC)CO | mg/dL | 10.1
CCN(CC)N=O | mg/dL | 10.4

Input line: Would you kindly share the measured Ca for O=C(O)COc1nn(Cc2ccccc2)c2ccccc12 ?
Output line: 10.6

###

Species on record: Rattus norvegicus
measurement.protocol: Open TG-GATES - Regimen: Single
Format: toxicity, organism-based, Sprague-Dawley
Parameters: regimen Single, gender Male, age 6 weeks
test.parameters: in vivo, po, 0 mg/kg, 3 h, tissue Blood, route gavage, dose level Control
Cut-off 2% on Mono: below means class 1, at or above means class 0.

Answered cases to consult:
compound | group
CC(=O)Nc1ccc2c(c1)Cc1ccccc1-2 [2-ACETYLAMINOFLUORENE] | class 0
CCN(CC)N=O [N-NITROSODIETHYLAMINE] | class 0
CC(=O)N1CCN(c2ccc(OCC3COC(Cn4ccnc4)(c4ccc(Cl)cc4Cl)O3)cc2)CC1 (configuration not stated) [KETOCONAZOLE] | class 1
O=C(O)COc1nn(Cc2ccccc2)c2ccccc12 [BENDAZAC] | class 0

Input line: I'd appreciate it if you could check whether CC(CCc1ccccc1)NCC(O)c1ccc(O)c(C(N)=O)c1 (configuration not stated) [LABETALOL] has Mono smaller than 2%.
Output line: class 0

###

Species: Rattus norvegicus
measurement.protocol: Open TG-GATES - Regimen: Single
Type: toxicity, organism-based, Sprague-Dawley
Parameters: regimen Single, gender Male, age 6 weeks
test.parameters: in vivo, po, 0 mg/kg, 3 h, tissue Blood, route gavage, dose level Control
# RBC listing for each entry below
Use x10_4/ul as the unit, but write only the number.

Recorded results for 5 compounds are shown here.
compound | RBC (x10_4/ul)
O=C(O)COc1nn(Cc2ccccc2)c2ccccc12 [BENDAZAC] | 625
CC[C@@H](CO)NCCN[C@@H](CC)CO [ETHAMBUTOL] | 597.6
CC(CCc1ccccc1)NCC(O)c1ccc(O)c(C(N)=O)c1 (configuration not stated) [LABETALOL] | 608.8
CC(C)Cc1ccc(C(C)C(=O)O)cc1 (configuration not stated) [IBUPROFEN] | 612.8
CCN(CC)N=O [N-NITROSODIETHYLAMINE] | 635.6

Input line: Would you kindly share the measured RBC for CC(=O)Nc1ccc2c(c1)Cc1ccccc1-2 [2-ACETYLAMINOFLUORENE] ?
Output line: 632.6

Input line: Would you kindly share the measured RBC for CC(=O)N1CCN(c2ccc(OCC3COC(Cn4ccnc4)(c4ccc(Cl)cc4Cl)O3)cc2)CC1 (configuration not stated) [KETOCONAZOLE] ?
Output line: 596.2

###

Species on record: Rattus norvegicus
measurement.protocol: Open TG-GATES - Regimen: Single
Assay type: toxicity, organism-based, Sprague-Dawley
Design: regimen Single, gender Male, age 6 weeks
test.parameters: in vivo, po, 0 mg/kg, 6 h, tissue Blood, route gavage, dose level Control
measurement.kind: WBC

Recorded results for 6 compounds are shown here.
compound | measurement.kind | reading
CC(C)Cc1ccc(C(C)C(=O)O)cc1 (configuration not stated) | WBC | 96.9 x10_2/uL
CC(=O)Nc1ccc2c(c1)Cc1ccccc1-2 | WBC | 108.9 x10_2/uL
CC(=O)N1CCN(c2ccc(OCC3COC(Cn4ccnc4)(c4ccc(Cl)cc4Cl)O3)cc2)CC1 (configuration not stated) | WBC | 78.2 x10_2/uL
O=C(O)COc1nn(Cc2ccccc2)c2ccccc12 | WBC | 96.6 x10_2/uL
CCN(CC)N=O | WBC | 81.9 x10_2/uL
CC(CCc1ccccc1)NCC(O)c1ccc(O)c(C(N)=O)c1 (configuration not stated) | WBC | 100.8 x10_2/uL

Query compound follows.
Input line: Would you kindly share the measured WBC for CC[C@@H](CO)NCCN[C@@H](CC)CO ?
Output line: 117.8 x10_2/uL

###

Species on record: Rattus norvegicus
measurement.protocol: Open TG-GATES - Regimen: Single
Format: toxicity, organism-based, Sprague-Dawley
Set-up: regimen Single, gender Male, age 6 weeks
test.parameters: in vivo, po, 0 mg/kg, 24 h, tissue Plasma, route gavage, dose level Control
# CRE listing for each entry below
Phrase the answer as number then unit, nothing more needed.

Recorded results for 4 compounds are shown here.
compound | CRE
CC(CCc1ccccc1)NCC(O)c1ccc(O)c(C(N)=O)c1 (configuration not stated) | 0.2 mg/dL
CCN(CC)N=O | 0.4 mg/dL
CC(=O)Nc1ccc2c(c1)Cc1ccccc1-2 | 0.4 mg/dL
CC[C@@H](CO)NCCN[C@@H](CC)CO | 0.2 mg/dL

Input line: Would you kindly share the measured CRE for O=C(O)COc1nn(Cc2ccccc2)c2ccccc12 ?
Output line: 0.6 mg/dL

Input line: Would you kindly share the measured CRE for CC(=O)N1CCN(c2ccc(OCC3COC(Cn4ccnc4)(c4ccc(Cl)cc4Cl)O3)cc2)CC1 (configuration not stated) ?
Output line: 0.2 mg/dL

Input line: Would you kindly share the measured CRE for CC(C)Cc1ccc(C(C)C(=O)O)cc1 (configuration not stated) ?
Output line: 0.2 mg/dL

###

Species on record: Rattus norvegicus
measurement.protocol: Open TG-GATES - Regimen: Daily Repeat
Format: toxicity, organism-based, Sprague-Dawley
Design: regimen Daily Repeat, gender Male, age 6 weeks
test.parameters: in vivo, po, 0 mg/kg, […], tissue Blood, route gavage, dose level Control, time 28 day
# Fbg listing for each entry below
Use mg/dL as the unit, but write only the number.

Recorded results for 3 compounds are shown here.
compound | Fbg [mg/dL]
CCN(CC)N=O | 225
CC[C@@H](CO)NCCN[C@@H](CC)CO | 315.8
O=C(O)COc1nn(Cc2ccccc2)c2ccccc12 | 219

Input line: Would you kindly share the measured Fbg for CC(C)Cc1ccc(C(C)C(=O)O)cc1 (configuration not stated) ?
Output line: 340.2

Input line: Would you kindly share the measured Fbg for CC(=O)Nc1ccc2c(c1)Cc1ccccc1-2 ?
Output line: 215.8

Input line: Would you kindly share the measured Fbg for CC(=O)N1CCN(c2ccc(OCC3COC(Cn4ccnc4)(c4ccc(Cl)cc4Cl)O3)cc2)CC1 (configuration not stated) ?
Output line: 291.4

Input line: Would you kindly share the measured Fbg for CC(CCc1ccccc1)NCC(O)c1ccc(O)c(C(N)=O)c1 (configuration not stated) ?
Output line: 289

###

Organism: Rattus norvegicus
measurement.protocol: Open TG-GATES - Regimen: Single
Format: toxicity, organism-based, Sprague-Dawley
Design: regimen Single, gender Male, age 6 weeks
test.parameters: in vivo, po, 0 mg/kg, 6 h, tissue Blood, route gavage, dose level Control
measurement.kind: Eos (%)
Use % as the unit, but write only the number.

Recorded results for 3 molecules are shown here.
molecule | uom | reading
O=C(O)COc1nn(Cc2ccccc2)c2ccccc12 [BENDAZAC] | % | 0.8
CC[C@@H](CO)NCCN[C@@H](CC)CO [ETHAMBUTOL] | % | 0.8
CCN(CC)N=O [N-NITROSODIETHYLAMINE] | % | 1

Input line: Would you kindly share the measured Eos for CC(=O)Nc1ccc2c(c1)Cc1ccccc1-2 [2-ACETYLAMINOFLUORENE] ?
Output line: 0.6

Input line: Would you kindly share the measured Eos for CC(CCc1ccccc1)NCC(O)c1ccc(O)c(C(N)=O)c1 (configuration not stated) [LABETALOL] ?
Output line: 1

Input line: Would you kindly share the measured Eos for CC(C)Cc1ccc(C(C)C(=O)O)cc1 (configuration not stated) [IBUPROFEN] ?
Output line: 0.8

Input line: Would you kindly share the measured Eos for CC(=O)N1CCN(c2ccc(OCC3COC(Cn4ccnc4)(c4ccc(Cl)cc4Cl)O3)cc2)CC1 (configuration not stated) [KETOCONAZOLE] ?
Output line: 0.8

###

# TBIL listing for each entry below
Species on record: Rattus norvegicus
measurement.protocol: Open TG-GATES - Regimen: Daily Repeat
Assay type: toxicity, organism-based, Sprague-Dawley
Set-up: regimen Daily Repeat, gender Male, age 6 weeks
test.parameters: in vivo, po, 0 mg/kg, […], tissue Plasma, route gavage, dose level Control, time 7 day
Use mg/dL as the unit, but write only the number.

Recorded results for 4 compounds are shown here.
compound | uom | TBIL
CC(=O)Nc1ccc2c(c1)Cc1ccccc1-2 [2-ACETYLAMINOFLUORENE] | mg/dL | 0.1
CC(C)Cc1ccc(C(C)C(=O)O)cc1 (stereo not drawn) [IBUPROFEN] | mg/dL | 0.004
CC(CCc1ccccc1)NCC(O)c1ccc(O)c(C(N)=O)c1 (stereo not drawn) [LABETALOL] | mg/dL | 0.034
CC(=O)N1CCN(c2ccc(OCC3COC(Cn4ccnc4)(c4ccc(Cl)cc4Cl)O3)cc2)CC1 (stereo not drawn) [KETOCONAZOLE] | mg/dL | 0.002

Input line: Would you kindly share the measured TBIL for CC[C@@H](CO)NCCN[C@@H](CC)CO [ETHAMBUTOL] ?
Output line: 0.006

Input line: Would you kindly share the measured TBIL for O=C(O)COc1nn(Cc2ccccc2)c2ccccc12 [BENDAZAC] ?
Output line: 0.3

Input line: Would you kindly share the measured TBIL for CCN(CC)N=O [N-NITROSODIETHYLAMINE] ?
Output line: 0.2

Input line: Would you kindly share the measured TBIL for CC(N)=O [ACETAMIDE] ?
Output line: 0
